- Tested on: HIV-1(IIIB)
- EXPERIMENT: Inhibition of HIV-1 induced syncytium formation in CEM cells, wild type
- Format: cell-based
- EXPERIMENTAL CONDITIONS: Human immunodeficiency virus 1, IIIB, CCRF-CEM, 96 h, Table 2B, WT = HIV-1(IIIB), day 4, averages of 2 to 3 independent experiments, read-out: Antiviral Activity of Comparative Compounds EC50, WT
So basically: is EC50 under 0.05 µg/mL? Then true. Not under? Then false.

COMPOUND	SYSTEM NAME	CAT
Cc1occc1C(=O)Nc1ccc(Cl)c(C(=O)OC(C)C2CC2)c1 (stereo not drawn) [Compound 54]	HIV-1(IIIB)	false
Cc1ccsc1C(=S)Nc1ccc(Cl)c(C=NOC(C)C)c1 [Compound 95]	HIV-1(IIIB)	true
CCC(CC)OC(=O)c1cc(NC(=S)c2ccoc2C)ccc1Cl [Compound 107]	HIV-1(IIIB)	true
Cc1ccccc1C(=O)Nc1ccc(Cl)c(C(=O)OC2CCCCC2)c1 [Compound 70]	HIV-1(IIIB)	false
Cc1sccc1C(=S)Nc1ccc(Cl)c(C(=O)OC(C(C)C)C(C)C)c1 [Compound 21]	HIV-1(IIIB)	true
Cc1sccc1C(=S)Nc1ccc(Cl)c(C=NOC(C)(C)C)c1 [Compound 61]	HIV-1(IIIB)	true
CC(C)OC(=O)c1cc(NC(=S)c2ccsc2)ccc1Cl [Compound 92]	HIV-1(IIIB)	true
C=CCOc1cc(NC(=S)c2ccoc2C)ccc1OC [Compound 73]	HIV-1(IIIB)	true
CC=CCOc1cc(NC(=O)c2ccoc2C)ccc1Cl [Compound 40]	HIV-1(IIIB)	false
CC(C)C(OC(=O)c1cc(NC(=S)c2ccccc2F)ccc1Cl)C(C)C [Compound 98]	HIV-1(IIIB)	false
Cc1occc1C(=S)Nc1ccc(Cl)c(C(=O)OCC(C)C)c1 [Compound 103]	HIV-1(IIIB)	true
CCC1=C(C(=O)Nc2ccc(Cl)c(C=NOC(C)(C)C)c2)SCCO1 [Compound 15]	HIV-1(IIIB)	true
Cc1sccc1C(=O)Nc1ccc(Cl)c(OCCC(C)C)c1 [Compound 33]	HIV-1(IIIB)	false
Cc1occc1C(=S)Nc1ccc(Cl)c(OCC(=O)OC(C)(C)C)c1 [Compound 115]	HIV-1(IIIB)	false
Cc1ccsc1C(=S)Nc1ccc(Cl)c(C(=O)OC(C)C)c1 [Compound 88]	HIV-1(IIIB)	true
CCOC(=O)c1cc(NC(=S)c2ccoc2C)ccc1C [Compound 75]	HIV-1(IIIB)	true
Cc1sccc1C(=O)Nc1ccc(Cl)c(OCC2CCCC2)c1 [Compound 42]	HIV-1(IIIB)	false
CC1=C(C(=O)Nc2ccc(Cl)c(C=NOC(C)(C)C)c2)SCCO1 [Compound 18]	HIV-1(IIIB)	true
Cc1sccc1C(=S)Nc1ccc(Cl)c(C(=O)OC(C)C)c1 [Compound 16]	HIV-1(IIIB)	true
O=C(OC1CCCCC1)c1cc(NC(=S)c2ccsc2)ccc1Cl [Compound 79]	HIV-1(IIIB)	true
Cc1occc1C(=O)Nc1ccc(Cl)c(COC(C)(C)C)c1 [Compound 52]	HIV-1(IIIB)	false
CC=CCSc1cc(NC(=S)c2ccsc2C)ccc1Cl [Compound 8]	HIV-1(IIIB)	true
Cc1sccc1C(=O)Nc1ccc(Cl)c(C=NOC(C)(C)C)c1 [Compound 60]	HIV-1(IIIB)	false
CC=CCOc1cc(NC(=O)c2ccsc2C)ccc1Cl [Compound 45]	HIV-1(IIIB)	false
Cc1ccccc1C(=S)Nc1ccc(Cl)c(C(=O)OC(C)C)c1 [Compound 91]	HIV-1(IIIB)	false
CC(C)OC(=O)c1cc(NC(=S)c2cccs2)ccc1Cl [Compound 89]	HIV-1(IIIB)	false
CC1=C(C(=O)Nc2ccc(Cl)c(C=NOC(C)(C)C)c2)CCCO1 [Compound 24]	HIV-1(IIIB)	false
CC1=C(C(=S)Nc2ccc(Cl)c(C=NOC(C)(C)C)c2)CCCO1 [Compound 5]	HIV-1(IIIB)	true
C=CCOc1cc(NC(=S)c2ccoc2C)ccc1C#N [Compound 74]	HIV-1(IIIB)	true
CC(C)OC(=O)c1cc(NC(=O)c2ccccc2)ccc1Cl [Compound 62]	HIV-1(IIIB)	false
Cc1ccoc1C(=S)Nc1ccc(Cl)c(C=NOC(C)C)c1 [Compound 94]	HIV-1(IIIB)	true
CC=CCOc1cc(NC(=S)c2ccsc2C)ccc1Cl [Compound 1]	HIV-1(IIIB)	true
C=CCON=Cc1cc(NC(=S)c2ccoc2C)ccc1Cl [Compound 111]	HIV-1(IIIB)	true
Cc1occc1C(=O)Nc1ccc(Cl)c(OCCC(C)C)c1 [Compound 37]	HIV-1(IIIB)	false
O=C(OC1CCCCC1)c1cc(NC(=S)c2ccccc2)ccc1Cl [Compound 82]	HIV-1(IIIB)	true
CC=CCOc1cc(NC(=S)c2ccn(C)c2C)ccc1Cl [Compound 19]	HIV-1(IIIB)	false
CON=Cc1cc(NC(=O)c2ccoc2C)ccc1OC [Compound 47]	HIV-1(IIIB)	false
Cc1sccc1C(=S)Nc1ccc(Cl)c(SCC(=O)OC(C)(C)C)c1 [Compound 20]	HIV-1(IIIB)	false
